From: patent US20110165161A1

- measurement_target: T1, human EpCAM (epithelial cell adhesion/activating molecule) (human, UniProt P16422 24-314)
- T1 sequence: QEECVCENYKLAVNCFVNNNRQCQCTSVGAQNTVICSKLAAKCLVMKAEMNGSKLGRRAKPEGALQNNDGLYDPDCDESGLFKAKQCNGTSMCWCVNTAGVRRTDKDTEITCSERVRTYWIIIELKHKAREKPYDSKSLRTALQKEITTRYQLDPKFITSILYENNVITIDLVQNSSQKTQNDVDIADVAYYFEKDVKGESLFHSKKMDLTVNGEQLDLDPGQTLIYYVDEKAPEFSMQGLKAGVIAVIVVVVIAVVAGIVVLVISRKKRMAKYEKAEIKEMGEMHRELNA
- test_description: cell-based or functional assay
property: % Annexin V/PI-positive cells, NCI-H520, 3.0 µg/ml mAb (%)
Express it in %; write the number only.

For orientation, consider the following solved cases.
binder	result
murine monoclonal antibody 4D2 (antibody, mouse IgG1, V domains shown, Mouse IgG1, kappa, from hybridoma; also called m338-4D2.20) VH: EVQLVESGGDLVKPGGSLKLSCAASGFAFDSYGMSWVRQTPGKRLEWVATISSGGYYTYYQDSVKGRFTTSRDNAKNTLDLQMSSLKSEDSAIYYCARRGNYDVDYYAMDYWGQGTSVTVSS VL: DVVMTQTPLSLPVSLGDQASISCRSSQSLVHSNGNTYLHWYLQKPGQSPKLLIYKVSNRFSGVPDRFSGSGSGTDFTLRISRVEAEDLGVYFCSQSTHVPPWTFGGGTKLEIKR	30
murine monoclonal antibody 6D11 (antibody, mouse IgG1, V domains shown, Mouse IgG1, kappa, from hybridoma; also called m338-6D11.8) VH: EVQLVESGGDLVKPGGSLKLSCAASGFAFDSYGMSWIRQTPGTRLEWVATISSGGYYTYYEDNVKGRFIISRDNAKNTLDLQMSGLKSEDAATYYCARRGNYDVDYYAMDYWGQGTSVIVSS VL: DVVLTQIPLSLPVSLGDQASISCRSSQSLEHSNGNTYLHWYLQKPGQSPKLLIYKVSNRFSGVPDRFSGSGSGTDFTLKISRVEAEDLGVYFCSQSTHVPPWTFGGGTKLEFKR	42
murine monoclonal antibody 2D11 (antibody, mouse IgG1, V domains shown, Mouse IgG1, kappa, from hybridoma; also called m322-2D11.19) VH: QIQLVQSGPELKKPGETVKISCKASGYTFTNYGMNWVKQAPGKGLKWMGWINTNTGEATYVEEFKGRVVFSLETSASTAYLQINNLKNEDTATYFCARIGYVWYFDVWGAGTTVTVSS VL: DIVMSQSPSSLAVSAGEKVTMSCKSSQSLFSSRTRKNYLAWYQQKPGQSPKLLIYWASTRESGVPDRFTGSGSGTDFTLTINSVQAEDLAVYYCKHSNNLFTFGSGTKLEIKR	44

Here's the next entry for you.
input: Returns the measured % Annexin V/PI-positive cells, NCI-H520, 3.0 µg/ml mAb for the input binder. Input: murine monoclonal antibody 12H8 (antibody, mouse IgG2a, V domains shown, Mouse IgG2a, kappa, from hybridoma; also called m342-12H8.3; m12H8) VH: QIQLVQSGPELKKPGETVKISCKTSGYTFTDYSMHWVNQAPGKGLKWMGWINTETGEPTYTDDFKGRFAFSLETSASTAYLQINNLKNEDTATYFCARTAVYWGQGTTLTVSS VL: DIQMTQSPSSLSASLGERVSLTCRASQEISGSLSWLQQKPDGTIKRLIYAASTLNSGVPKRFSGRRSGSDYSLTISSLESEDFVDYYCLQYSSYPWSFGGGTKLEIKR
output: 29
